Taken from ChEMBL document CHEMBL1148289.

tested on: MT4; experiment: Cytotoxic concentration required to reduce the viability of mock-infected MT-4 cells; type: functional; settings: Homo sapiens
metric.name: CC50

Consider O=c1cc(Cc2c(F)cccc2F)nc(NC2CCCC2)[nH]1 . Its measured CC50 is > 200 µM

Consider Cc1c(C(C)c2c(F)cccc2F)nc(SC2CCCC2)[nH]c1=O (centres undefined) . Its measured CC50 is > 200 µM

Consider CC(c1cc(=O)[nH]c(SC2CCCC2)n1)c1c(F)cccc1F (centres undefined) . Its measured CC50 is > 200 µM

Consider Cc1c(C(C)c2c(F)cccc2F)nc(NC2CCCC2)[nH]c1=O (centres undefined) . Its measured CC50 is 90 µM

Consider CC(c1cc(=O)[nH]c(NC2CCCC2)n1)c1c(F)cccc1F (centres undefined) . Its measured CC50 is 76 µM

Consider O=c1cc(Cc2c(F)cccc2F)nc(SC2CCCC2)[nH]1 . Its measured CC50 is > 200 µM

Consider Cc1c(Cc2c(F)cccc2F)nc(SC2CCCC2)[nH]c1=O . Its measured CC50 is > 200 µM

Consider CCOCn1c(Cc2ccccc2)c(C(C)C)c(=O)[nH]c1=O [EMIVIRINE] . Its measured CC50 is 200 µM

Consider Cc1c(Cc2c(F)cccc2F)nc(NC2CCCC2)[nH]c1=O . Its measured CC50 is > 200 µM

###

Kindly supply the reported IC50 values for the records listed here.
target: Human immunodeficiency virus type 1 reverse transcriptase (Human immunodeficiency virus 1)
Note: unit nM is implicit; provide only the numeric part.

Consider O=c1cc(Cc2c(F)cccc2F)nc(NC2CCCC2)[nH]1 . Its measured IC50 is 70

Consider CC(c1cc(=O)[nH]c(NC2CCCC2)n1)c1c(F)cccc1F (stereo not given) . Its measured IC50 is 40

Consider CC(c1cc(=O)[nH]c(SC2CCCC2)n1)c1c(F)cccc1F (stereo not given) . Its measured IC50 is 30

Consider Cc1c(C(C)c2c(F)cccc2F)nc(NC2CCCC2)[nH]c1=O (stereo not given) . Its measured IC50 is 35

Consider Cc1c(Cc2c(F)cccc2F)nc(NC2CCCC2)[nH]c1=O . Its measured IC50 is 30
